# Method description: Selectivity index, ratio of IC50 for human HCT116 cells to IC50 for chloroquine-sensitive Plasmodium falciparum FCA 20/ Ghana
# Format: toxicity, cell-based, HCT-116
# Study conditions: HCT116 cells versus Plasmodium falciparum FCA 20/Ghana, read-out: Ratio IC50
Cut-off 60 on selectivity ratio, inclusive. At or above means 1.0; below means 0.0.

These recorded examples may help you get a feel for the data.
CC[C@H]1CN2CCC3c4ccc(O)c([C@@H]5CCCN5C)c4NC3[C@@H]2C[C@@H]1C[C@H]1c2[nH]c3ccccc3c2CCN1C (stereo not given in full) [ISOSTRYCHNOPENTAMINE]; 1.0
C/C=C1\CN2CC[C@]34c5ccccc5N5[C@@H]6O[C@H]([C@H]([C@H]53)[C@H]1C[C@H]24)N1c2ccccc2[C@]23CCN4C/C(=C/C)[C@H](C[C@H]42)[C@H]6[C@H]13 (stereo in doubt; 52) [MATOPENSINE]; 0.0
CC[C@H]1CN2CCC3c4ccccc4NC3[C@@H]2C[C@@H]1C[C@H]1NCCc2c1[nH]c1ccccc21 (stereo not given in full) [OCHROLIFUANINE A]; 1.0

Does selectivity ratio meet or surpass 60 for "C/C=C1\CN2CC[C@]34c5ccccc5N5[C@H]3[C@@H]([C@H]3O[C@@H]5[C@]5(OC)[C@@H]6N3c3ccccc3[C@@]63CCN6C/C(=C\C)[C@@H]5C[C@H]63)[C@H]1C[C@H]24" ?
0.0

Does selectivity ratio meet or surpass 60 for C/C=C1/CN2CCc3c([nH]c4ccccc34)[C@@H]2C[C@@H]1C1=CN2c3ccccc3[C@@]34CCN5CC6=CCO[C@@H]1[C@@H]([C@H]23)[C@H]6C[C@H]54 [LONGICAUDATINE] ?
0.0

###

# Test system: Plasmodium falciparum
# Method description: Antiplasmodial activity against chloroquine-resistant Plasmodium falciparum W2/Indochina by [3H]hypoxanthine uptake
# Type: functional, organism-based
Item-by-item account of IC90
Write down the value, and be sure its unit follows.

Before answering, review these 3 worked examples.
CC1C2=CN3CCc4c([nH]c5ccc(O)cc45)C3CC2CC2NCCC3c4ccccc4N1C23 (stereo in doubt; 65); 27.8 µM
C/C=C1\CN2CC[C@]34c5ccccc5N5[C@@H]6O[C@H]([C@H]([C@H]53)[C@H]1C[C@H]24)N1c2ccccc2[C@]23CCN4C/C(=C/C)[C@H](C[C@H]42)[C@H]6[C@H]13 (stereo in doubt; 52) [MATOPENSINE]; 7.74 µM
C=CC1CN2CC[C@@]34c5cc(C(C)C6=CN7CC[C@]89c%10ccccc%10N[C@H]8[C@@H](CO)[C@H]6C[C@H]79)ccc5N[C@@H]3[C@@H](CO)[C@@H]1C[C@@H]24 (stereo in doubt; 68); 85.8 µM

--- query ---
// lookup IC90 | system=Plasmodium falciparum | key= C/C=C1\CN2CC[C@]34c5ccccc5N5[C@@H]6O[C@H]([C@H]([C@H]53)[C@H]1C[C@H]24)N1c2ccccc2[C@]23CCN4C/C(=C/C)[C@H](C[C@H]42)[C@H]6[C@H]13 (stereo in doubt; 53) [MATOPENSINE]
86.7 µM

###

Item-by-item account of selectivity ratio
# Method description: Selectivity index, ratio of IC50 for human HCT116 cells to IC50 for moderately chloroquine-resistant Plasmodium falciparum FCB1-R/Colombia
# Format: toxicity, cell-based, HCT-116
# Study conditions: HCT116 cells versus Plasmodium falciparum FCB1-R/Colombia, read-out: Ratio IC50
Answer with a number only.

CC[C@H]1CN2CCC3c4ccc(O)c([C@@H]5CCCN5C)c4NC3[C@@H]2C[C@@H]1C[C@H]1c2[nH]c3ccccc3c2CCN1C (some centres undefined); 71.8

What value of measured selectivity ratio is listed for C/C=C1\CN2CC[C@]34c5ccccc5N5[C@@H]6O[C@H]([C@H]([C@H]53)[C@H]1C[C@H]24)N1c2ccccc2[C@]23CCN4C/C(=C/C)[C@H](C[C@H]42)[C@H]6[C@H]13 (stereo in doubt; 52) ?
33.1

What value of measured selectivity ratio is listed for "C/C=C1\CN2CC[C@]34c5ccccc5N5[C@H]3[C@@H]([C@H]3O[C@@H]5[C@]5(OC)[C@@H]6N3c3ccccc3[C@@]63CCN6C/C(=C\C)[C@@H]5C[C@H]63)[C@H]1C[C@H]24" ?
15.9

What value of measured selectivity ratio is listed for "C/C=C1/CN2CCc3c([nH]c4ccccc34)[C@@H]2C[C@@H]1C1=CN2c3ccccc3[C@@]34CCN5CC6=CCO[C@@H]1[C@@H]([C@H]23)[C@H]6C[C@H]54" ?
8.81
